Target: recombinant human DLL4 (Cat# 1506-D4/CF, R&D Systems) (human) (UniProt Q9NR61)
Experiment: ELISA, DLL4 coated, Fab 12.5 nM
Listed binders paired with reported ELISA absorbance at 450 nm
Number in A450, nothing else.

Examples with their reported ELISA absorbance at 450 nm follow.
- Binder: "Fab VH5-51_IGHD5-18*01>3_IGHJ4*01 G100K/G104T G24T/S28R/G35V D109Q & V3-4_IGLJ1*01 (Fab, V domains shown) VH: EVQLVQSGAEVKKPGESLKISCKTSGYRFTSYWIVWVRQMPGKGLEWMGIIYPGDSDTRYSPSFQGQVTISADKSISTAYLQWSSLKASDTAMYYCARRKYSYTYDYFQYWGQGTLVTVSS VL: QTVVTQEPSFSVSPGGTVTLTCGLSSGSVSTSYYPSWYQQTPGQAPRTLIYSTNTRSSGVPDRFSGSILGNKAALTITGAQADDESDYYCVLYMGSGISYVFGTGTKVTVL"
  ELISA absorbance at 450 nm [A450]: 0.24
- Binder: "Fab VH5-51_IGHD5-18*01>3_IGHJ4*01 G100K & V3-4_IGLJ1*01 (Fab, V domains shown) VH: EVQLVQSGAEVKKPGESLKISCKGSGYSFTSYWIGWVRQMPGKGLEWMGIIYPGDSDTRYSPSFQGQVTISADKSISTAYLQWSSLKASDTAMYYCARRKYSYGYDYFDYWGQGTLVTVSS VL: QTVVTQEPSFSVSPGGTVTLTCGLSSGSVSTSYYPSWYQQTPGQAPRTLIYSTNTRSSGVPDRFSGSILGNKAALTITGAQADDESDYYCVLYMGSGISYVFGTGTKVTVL"
  ELISA absorbance at 450 nm [A450]: 0.19
- Binder: "Fab VH5-51_IGHD5-18*01>3_IGHJ4*01 G104T & V3-4_IGLJ1*01 (Fab, V domains shown) VH: EVQLVQSGAEVKKPGESLKISCKGSGYSFTSYWIGWVRQMPGKGLEWMGIIYPGDSDTRYSPSFQGQVTISADKSISTAYLQWSSLKASDTAMYYCARRGYSYTYDYFDYWGQGTLVTVSS VL: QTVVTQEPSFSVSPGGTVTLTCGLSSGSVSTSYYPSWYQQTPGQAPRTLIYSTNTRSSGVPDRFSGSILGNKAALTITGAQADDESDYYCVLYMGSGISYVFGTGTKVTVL"
  ELISA absorbance at 450 nm [A450]: 0.19

Now take the following binder into account.
query: Please give the measured ELISA absorbance at 450 nm for this binder: Fab VH5-51_IGHD5-18*01>3_IGHJ4*01 G100K/G104T G24T/S28R/G35V Y107F & V3-4_IGLJ1*01 (Fab, V domains shown) VH: EVQLVQSGAEVKKPGESLKISCKTSGYRFTSYWIVWVRQMPGKGLEWMGIIYPGDSDTRYSPSFQGQVTISADKSISTAYLQWSSLKASDTAMYYCARRKYSYTYDFFDYWGQGTLVTVSS VL: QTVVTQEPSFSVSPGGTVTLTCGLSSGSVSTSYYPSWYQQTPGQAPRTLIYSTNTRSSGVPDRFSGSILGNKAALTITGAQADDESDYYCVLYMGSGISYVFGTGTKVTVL
result: 0.21
